Experiment: Inhibitory concentration against human p21 deficient cell (p21-/-) proliferation
measure-name: IC50

What does the data say about its IC50? Entry: COc1ccc(-c2nc3sc4c(c3c(=O)[nH]2)CCCC4)cc1OC
> 20 µM

====

Assay: Inhibitory concentration against human p21 […] cell (p21+/+) proliferation
measure-name: pIC50
Numbers only, as −log10 of the molar value.

Give the measured pIC50 of O=C(c1cccs1)c1cnn2c(-c3cccc(NC(=O)C4CC4)c3)ccnc12 .
4.92

====

Assay: Inhibitory concentration against human p21 proficient cell (p21+/+) proliferation
measure-name: IC50

Entry COc1ccc(-c2nc3sc4c(c3c(=O)[nH]2)CCCC4)cc1OC : reported IC50 = ?
> 20 µM
